- protocol summary: Stability in human plasma assessed as parent compound remaining at 40 uM measured after 1 hr by LC-MS/MS analysis
- Format: ADME, cell-free
- condition label: read-out: Stability
Listed here are compounds together with their documented remaining at 1 h, 40 µM.
Write it as a number; the unit % goes unstated.

CC(C)COC(=O)n1c(=O)ccn([C@@H]2O[C@H](CO[P@@](=O)(N[C@@H](C)C(=O)OC(C)C)Oc3ccccc3)[C@@H](O)[C@@]2(C)F)c1=O | 61

With those in mind, consider the next compound.
Task: Item CC(C)OC(=O)OC(C)n1c(=O)ccn([C@@H]2O[C@H](CO[P@@](=O)(N[C@@H](C)C(=O)OC(C)C)Oc3ccccc3)[C@@H](O)[C@@]2(C)F)c1=O (some centres not stated) has what recorded remaining at 1 h, 40 µM?
Output: 90
